I'd appreciate it if you could supply GI50 values for the items below.
tested on: OVCAR-8; test: NCI tumour cell line growth inhibition, 48 h
Calls of active or inactive are those of the source. Cut-off read from the data, not from the text of the source: active = GI50 up to about 1.1 µM and inactive = higher.

O=C(O)CCc1c2ccc(=O)c(O)c-2oc2c(O)c(O)ccc12 :: 54.6 µM (inactive)
COc1ccc(SC(C)(SC)c2ccccn2)c(OC)n1 (configuration not stated) :: 75.7 µM (inactive)
CCOC(=O)c1nc2cc(F)c(F)cc2nc1NCc1cc(OC)c(OC)c(OC)c1 :: > 100 µM (inactive)

Please go through the list and note GI50 for each compound.
1. O=C(c1c(Cl)cc(Cl)cc1Cl)N(Cc1cccnc1)C(=S)N(Cc1cccnc1)C(=O)c1c(Cl)cc(Cl)cc1Cl
2. Cc1ccc2c(c1)c(=O)c1c(NCCN(C)C)ccc3nnn2c31

1: 4.04 µM (inactive); 2: 2.98 µM (inactive)

Please go through the list and note GI50 for each compound.
1. CC1=C(C(=O)NNC(=O)Cc2ccccc2)CC(C(=O)NNC(=O)Cc2ccccc2)=C(C)N1
2. C[N+](C)(C)CC1CCCCC1=O (configuration not stated)

["> 100 µM (inactive)", "19.2 µM (inactive)"]
